Target: Solute carrier organic anion transporter family member 1B1 (Homo sapiens)
Sequence (Q9Y6L6 whole entry): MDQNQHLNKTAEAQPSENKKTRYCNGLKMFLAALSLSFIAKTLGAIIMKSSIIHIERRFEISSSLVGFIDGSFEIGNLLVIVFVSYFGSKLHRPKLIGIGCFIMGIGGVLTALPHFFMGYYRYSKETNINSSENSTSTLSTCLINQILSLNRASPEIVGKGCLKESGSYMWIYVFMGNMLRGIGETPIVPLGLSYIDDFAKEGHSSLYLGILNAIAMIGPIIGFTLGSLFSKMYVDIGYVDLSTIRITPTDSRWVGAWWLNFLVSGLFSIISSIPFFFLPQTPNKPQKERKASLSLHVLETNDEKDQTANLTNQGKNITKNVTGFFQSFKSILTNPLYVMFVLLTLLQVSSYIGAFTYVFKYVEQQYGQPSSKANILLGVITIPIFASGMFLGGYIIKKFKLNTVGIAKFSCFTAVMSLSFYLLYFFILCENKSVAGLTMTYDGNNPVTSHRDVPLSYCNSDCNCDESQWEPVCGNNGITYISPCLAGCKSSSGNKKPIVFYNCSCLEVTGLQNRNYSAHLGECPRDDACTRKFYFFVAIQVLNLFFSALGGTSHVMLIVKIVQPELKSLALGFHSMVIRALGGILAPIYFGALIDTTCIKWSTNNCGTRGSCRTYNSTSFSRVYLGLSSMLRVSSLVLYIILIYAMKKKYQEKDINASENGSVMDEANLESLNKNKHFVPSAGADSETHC
Conditions: chinese hamster, cho, 10 µM
Residues, ends and D or L forms follow the SMILES beside them.
Quantity kind: residual activity (%)
Output spec: scalar in %, unitless text.

Request the reported residual activity associated with Cc1ccc(C(C)C)cc2c(C)ccc1-2
49.11

Reported residual activity, molecule COC1=CC(=O)C=C(OC)C1=O : ____
115.1

What value of residual activity has been reported for the following molecule? CCOC(=O)OC(C)OC(=O)[C@@H]1N2C(=O)[C@@H](NC(=O)[C@H](N)c3ccccc3)[C@H]2SC1(C)C.Cl (stereo partly specified) [BACAMPICILLIN HYDROCHLORIDE]
46.45

What measured residual activity goes with CC1(C)CC2C1CCC1(C)OC2(C)CCC1O (stereo unspecified) ?
57.88

Quick check: residual activity of CC(=O)OCC(=O)[C@@]1(O)CC[C@H]2[C@@H]3CCC4=CC(=O)CC[C@]4(C)[C@H]3C(=O)C[C@@]21C [CORTISONE ACETATE] ?
103.3

Form field: reported residual activity of C=C(C)c1cc2cc(C(C)=O)c(O)cc2o1
94.93

Which measured residual activity value corresponds to O=[N+]([O-])O[C@H]1CO[C@H]2[C@@H]1OC[C@H]2O[N+](=O)[O-] [ISOSORBIDE DINITRATE] ?
86.27

Which residual activity is listed for CC(C)C[C@H](NC(=O)CN)C(=O)N[C@@H](Cc1ccccc1)C(=O)O (H-Gly-Leu-Phe-OH) ?
118.4

Any idea what its residual activity is? The molecule is COP(=S)(OC)Oc1ccc(SC)c(C)c1
116.2

# query: residual activity of entry C[C@H](CCC(=O)O)[C@H]1CC[C@H]2[C@@H]3CC[C@@H]4CCCC[C@]4(C)[C@H]3CC[C@]12C
98.45

Look at this molecule and give its reported residual activity. C=CCCCCCCCCCCC/C=C/C(O)COC(C)=O (stereo unspecified) [DEHYDROAVOCATIN-1-ACETATE]
134.1

Form field: reported residual activity of COc1cc(C(=O)NCc2ccc(OCCN(C)C)cc2)cc(OC)c1OC.Cl [TRIMETHOBENZAMIDE HYDROCHLORIDE]
111

# lookup: residual activity of OC[C@@H](O)C(O)[C@H](O)CO
121.4

Dear colleague, I am looking for the recorded residual activity of the following molecule: COc1ccc(-c2c(OC)c3c(OC)c4c(cc3oc2=O)OC(C)(C)C=C4)cc1
184.1

I'd like to know its residual activity. The molecule in question is COC(=O)[C@@H]1OC(=O)[C@H]2O[C@]23[C@@]2(C)[C@H](CC[C@@]13C)[C@@]1(C)[C@@H](OC(C)=O)C[C@@H](OC(C)=O)C(C)(C)[C@@H]1C[C@@H]2O
66.58

Quick one: residual activity for NC(=O)CN1CCCC1=O ?
88.77

Which value of residual activity has been reported for Cc1ccc(O)cc1 in the records?
115

Return reported residual activity; argument: COC(=O)c1c(C)cc(OC(=O)c2c(C)cc(O)c(C=O)c2O)c(C)c1O
122.9

Look up residual activity: CC1=C(C(=O)O)N2C(=O)[C@@H](NC(=O)[C@H](N)c3ccccc3)[C@H]2SC1 [CEPHALEXIN ANHYDROUS]
94.03

What measured residual activity goes with O=S1OCC2C(CO1)C1(Cl)C(Cl)=C(Cl)C2(Cl)C1(Cl)Cl (stereo unspecified) [ENDOSULFAN] ?
111.6

Give its residual activity value. Item: CCCCN1CCCCC1C(=O)Nc1c(C)cccc1C.Cl (stereo unspecified) [BUPIVACAINE HYDROCHLORIDE]
97.15

Using the record for C[C@H]1[C@H](C)CC[C@]2(CO)CC[C@]3(C)C(=CC[C@@H]4[C@@]5(C)CC[C@H](O)C(C)(C)[C@@H]5CC[C@]43C)[C@H]12 , report its residual activity.
121.5

Please report the recorded residual activity for O=C(O)c1cc(/N=N/c2ccc(S(=O)(=O)Nc3ccccn3)cc2)ccc1O .
126.2

Suppose we examine the molecule CC1(C)[C@@H](OC(=O)CCC(=O)[O-])CC[C@]2(C)[C@H]3C(=O)C=C4[C@@H]5C[C@@](C)(C(=O)[O-])CC[C@]5(C)CC[C@@]4(C)[C@]3(C)CC[C@@H]12.[Na+].[Na+] [CARBENOXOLONE SODIUM] ; what residual activity value has been reported?
15.44

Quick one: residual activity for Cc1cccc(Nc2ccccc2C(=O)O)c1C ?
63.23

Could you share which residual activity value was measured for C[C@H](CCC(=O)O)[C@H]1CC[C@H]2[C@@H]3[C@@H](O)C[C@@H]4C[C@H](O)CC[C@]4(C)[C@H]3CC[C@]12C ?
70.93

Suppose we examine the molecule CC1(C)C(=O)[C@@H]2O[C@@H]2[C@]2(C)[C@H]3CC[C@@]4(C)[C@H](c5ccoc5)OC(=O)[C@H]5O[C@]54[C@]3(C)C(=O)C[C@@H]12 ; what residual activity value has been reported?
68.02

For the molecule C=CCSCC=C [DIALLYL SULFIDE] , what residual activity is on record?
82.5

Tell me the measured residual activity of CC12CCCC(O)(C1)C1CC(C)(C)C1CC2 (stereo unspecified) , please.
117.4

Give the measured residual activity of COc1ccc2cc3[n+](cc2c1OC)CCc1cc2c(cc1-3)OCO2.[Cl-] [BERBERINE CHLORIDE] .
110.4

Request the reported residual activity associated with COc1ccc(-c2oc3c(CC=C(C)C)c(O[C@@H]4O[C@H](CO)[C@@H](O)[C@H](O)[C@H]4O)cc(O)c3c(=O)c2O[C@@H]2O[C@@H](C)[C@H](O)[C@@H](O)[C@H]2O)cc1
212.5
